Please provide measured growth for the entries that follow.
Tested on: NCI-H460 lung
experiment: NCI-60 one-dose screen, 48 h (100 = growth as untreated, 0 = no growth, -100 = all killed)
study conditions: 10 µM unless noted
Compounds without any hit were thinned out: in the full panel of roughly 83,000, 20% have a hit.
Numbers only, in %.

Field: example entries. Status: answers known.
COc1nc2c(cc1S(=O)(=O)c1ccccc1)CCc1c-2cnn1-c1ccccc1Cl : 67
C=C(C)COC(=O)c1ccccc1C(=O)OCC1(C)CO1 (stereo unspecified) : 108
O=c1c2cc(F)ccc2oc2c(NCCNCCO)nc3ccccc3c12 : 13.1
CCOC(=O)c1sc(NC(=O)CN2CCC(Cc3ccccc3)CC2)nc1C : 101
COc1ccc(C2OCC(C)(C)CO2)cc1OC : 108
O=C1c2ccccc2-c2cn(Cc3ccccc3)c3cccc(c23)C1c1cccnc1 (stereo unspecified) : 23.2

Could I get growth for every one of these entries?
1. CSc1ccc(OC(C)=O)cc1C
2. O=S(=O)(OCCO)c1ccccc1
3. O=C1NC(=O)C(CSc2ccccc2)(c2ccccc2)N1 (stereo unspecified)
4. Brc1ccc(SCN(CSc2ccc(Br)cc2)Cc2ccccc2)cc1
5. O=C1C(OCCOc2ccccc2)=C(OCCOc2ccccc2)C(=O)c2ccccc21

Marked response:
1. 104
2. 113
3. 118
4. 63.1
5. -26

* * *

Test system: HCT-116 colon
experiment: NCI-60 one-dose screen, 48 h
study conditions: 10 µM unless noted
This is part of a sample that, as a whole, favours compounds with a hit. Of some 83,000 tested, about 20% had one in any assay. Activity calls are given as the source filed them. Rule for the calls: active = growth percent below 10; inactive = the rest.
One label from this list, please: active, inactive

NC(=O)c1nc2c([nH]c1=O)CCCC2 : inactive
COc1ccc(/C=C(\C#N)c2cc3ccccc3n2C)cc1 : inactive
O=C1C(OCCOc2ccccc2)=C(OCCOc2ccccc2)C(=O)c2ccccc21 : inactive
O=c1c2cc(F)ccc2oc2c(NCCNCCO)nc3ccccc3c12 : inactive

Please find the next molecule below.
Exam item: # lookup: test call for COc1ccc(/C=C2\CN(Cc3cn(CCCNc4ccnc5cc(Cl)ccc45)nn3)C/C(=C\c3ccc(OC)cc3)C2=O)cc1
Marked response: inactive

* * *

Record form. Attribute: growth. Fill in for each entry.
Tested on: LOX IMVI melanoma
experiment: NCI-60 one-dose screen, 48 h (100 = growth as untreated, 0 = no growth, -100 = all killed)
study conditions: 10 µM unless noted
About 83,000 compounds went through this panel and 20% of them were active in at least one assay; those are over-represented in the sample as a whole.
Give bare numbers, in %.

# annotated cases, reported growth shown
c1ccc(-c2nc(N3CCOCC3)c3c4c(sc3n2)CCCCCC4)nc1 : 69.6
Cc1cc(O)cc2c1[C@H]1CC[C@]3(C)[C@@H](O)CC[C@H]3[C@@H]1C=C2 : 81.3
COc1cc(C(=O)N(C(C)C)C2CCCCC2)cc(OC)c1OC : 94.6
COc1ccc(C(=O)COc2cccc(/C=C3\CSc4ccc(C)cc4C3=O)c2)cc1 : 74.2
Cc1ccc(S(=O)(=O)N2C/C(=C\c3cc(F)cc(F)c3)C(=O)/C(=C/c3cc(F)cc(F)c3)C2)cc1 : -94.5

Batch of 6 compounds: report growth for each.
1. Cc1cc(=O)c2c(C)ccc(C)c2[nH]1
2. COc1ccc(/C=C/C(=O)N2CCC(O)CC2)cc1OC1CCCC1
3. COc1cc(-c2nc(Nc3nc4ccccc4[nH]3)nc(N)c2C#N)cc(OC)c1OC
4. COC(=O)c1c2c(c(C)[n+]([O-])c1C)C(=O)C=C(NCc1cccc(OC)c1)C2=O
5. O=[N+]([O-])c1cc2c(cc1Br)-c1ccccc1C2
6. CC1(C)N=C(N)N=C(N)N1c1cccc(OCCOc2cccc([N+](=O)[O-])c2)c1

Marked response:
[97.7, 95.3, 69.5, -79.7, 88.8, 20.1]
